MEASUREMENT NOTES: Octanol-water partition co-efficient, shaker method
Type: physicochemical
DETAILS: read-out: experimental M log P
METRIC NAME: logP
Respond using a number only.

Measured logP, Oc1c(Br)cc(Cl)c2cccnc12 [Compound 5, 7-bromo-5-chloroquinolin-8-ol] : 3.03

----------
// IC50 collected for HsMetAP2 (Homo sapiens, UniProt P50579)
Enter your answer as a number in µM; do not include the unit.

Measured IC50, O=C(N/N=C/c1c(O)ccc2ccccc12)c1ccncc1 [drawing 22] : 146

Measured IC50, O=C(N/N=C/c1c(O)ccc2ccccc12)c1ccncc1 [Compound 1] : 146

----------
MEASUREMENT NOTES: Pharmacokinetic study in male Sprague Dawley rats
Assay type: in vivo
DETAILS: male, Sprague Dawley, rat, plasma, sc, 10 mg/kg, Subcutaneous (Dose: 10 mg/kg), non-compartmental analysis, read-out: Fabs (absolute bioavailability)
METRIC NAME: bioavailability (%)
Enter your answer as a number in %; do not include the unit.

Measured bioavailability, Oc1c(Br)cc(Cl)c2cccnc12 : 15.7

----------
MEASUREMENT NOTES: Solubility in various solvents, shaker method
Assay type: physicochemical
DETAILS: dimethyl acetamide, organic solvent or mixture, thermodynamic from solid; read-out: Mean Solubility ± SD
METRIC NAME: solubility at 72 h

Measured solubility at 72 h, Oc1c(Br)cc(Cl)c2cccnc12 [Compound 5, 7-bromo-5-chloroquinolin-8-ol] : > 80 mg/mL

----------
MEASUREMENT NOTES: Pharmacokinetic study in male Sprague Dawley rats
Assay type: in vivo
DETAILS: male, Sprague Dawley, rat, plasma, iv, 2 mg/kg, Intravenous (Dose: 2 mg/kg), two compartment model, read-out: T1/2α (distribution half-life) (converted)
METRIC NAME: half-life (min)
Enter your answer as a number in min; do not include the unit.

Measured half-life, Oc1c(Br)cc(Cl)c2cccnc12 : 11.4

----------
Tested on: Wild-type L. major promastigotes
MEASUREMENT NOTES: Leishmania major luciferase assay, wild type promastigotes
DETAILS: read-out: Wild-type L. major promastigotes EC50
METRIC NAME: EC50 (nM)
Enter your answer as a number in nM; do not include the unit.

Measured EC50, Cc1nc(-c2ccccn2)nc(N(C)Cc2ccccc2)c1Cl : 243

Measured EC50, Oc1ccccc1/C=N/Nc1ncnc2sc3c(c12)CCCC3 : 375

Measured EC50, O=C(N/N=C/c1c(O)ccc2ccccc12)c1ccncc1 : 640

----------
METRIC NAME: pIC50
# pIC50: negative log10 of molar concentration; output just the value

MtMetAP1a (Mycobacterium tuberculosis, UniProt P9WK21) pIC50 of O=C(N/N=C/c1c(O)ccc2ccccc12)c1ccncc1 [drawing 22] is 5.31

----------
MEASUREMENT NOTES: Pharmacokinetic study in male Sprague Dawley rats
Type: in vivo
DETAILS: male, Sprague Dawley, rat, plasma, po, 20 mg/kg, Oral (Dose: 20 mg/kg), non-compartmental analysis, read-out: T1/2 (elimination half-life) (converted)
METRIC NAME: half-life (h)
Enter your answer as a number in h; do not include the unit.

Measured half-life, Oc1c(Br)cc(Cl)c2cccnc12 : 8.21

----------
MEASUREMENT NOTES: Pharmacokinetic study in male Sprague Dawley rats
Format: in vivo
DETAILS: male, Sprague Dawley, rat, plasma, sc, 10 mg/kg, Subcutaneous (Dose: 10 mg/kg), non-compartmental analysis
Description: Pharmacokinetic evaluation elucidates the fate of compound 5 in living systems. The pharmacokinetic study of compound 5 was also a means to verify the applicability of the LC-MS/MS assay method and the formulations. […] The plasma and urine samples were analyzed (within 7 days) using the developed LC/MS/MS method to determine the concentration of compound 5. […]
METRIC NAME: Cmax (ng/mL)
Enter your answer as a number in ng/mL; do not include the unit.

Measured Cmax, Oc1c(Br)cc(Cl)c2cccnc12 [Compound 5, 7-bromo-5-chloroquinolin-8-ol] : 910
